- studyTarget: T1, HGREM1-His (ACRO) (human, UniProt O60565 25-184)
- T1 construct: Lys25-Asp184 of NP_037504 with C-terminal polyhistidine tag (ACRO GR1-H52H3); they are put here; also called hGREM1 (ACRO); human gremlin (ACRO)
- T1 sequence: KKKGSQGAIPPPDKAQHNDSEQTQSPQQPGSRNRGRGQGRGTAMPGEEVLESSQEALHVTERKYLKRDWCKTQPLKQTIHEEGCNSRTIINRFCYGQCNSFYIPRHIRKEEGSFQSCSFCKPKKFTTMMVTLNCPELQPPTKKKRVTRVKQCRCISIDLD
- protocolSummary: blocking ELISA, Human Gremlin-1 binding to FGFR1
assayReadout: IC50 (µg/mL)
State just the number; it will be interpreted in µg/mL.

Solved entries:
36F5 (antibody, V domains shown, mouse hybridoma antibody; also called hybridoma 36F5) VH: QVQLQQSGAELARPGASVKLSCKASGYSFTSSGIGWVKQRSGQGLEWIGEIYPRSGNTYNNEKFKGKATLTADKSSSTVYMELRSLTSEDSAVYFCVREAYSHHYYAMDYWGQGTSVTVFS VL: DVLMTQTPLSLPVSLGGQASISCRSSQSLLHSNGNTYLEWYLQKPGQSPKLLIYKVSNRFSGVPDRLSGSGSGTDFTLKISRVEAEDLGVYYCFQGSHVPFTFGSGTKLEIN	1.84
42B9 (antibody, V domains shown, mouse hybridoma antibody; also called hybridoma 42B9) VH: QVQLQQSGAELARPGASVKLSCKASGYTFTSYGIGWVKQRTGQGLEWIGEIYPRSGNTYNNEKFKGKATLTADKSSRTVYMELRSLISEDSAVYFCAREGYSNNYYAMDYWGQGTSVTVFS VL: DVLMTQTPLSLPVSLGDQASISCISSQSLVHSNGNTYLEWYLQKPGLSPKLLIYKVSNRFSGVPDRLSGSGSGTDFTLRISRVEAEDLGVYYCFQGSHVPFTFGSGTKLEIK	2.79
Hu14E3_HaLa (antibody, IgG1, V domains shown, humanized) VH: QVQLVQSGSELKKPGASVKVSCKASGYTFTTYGMAWMRQAPGQGLEWMGWINTLSGEPTYADDFKGRFVFSLDTSVSTAYLQISSLKAEDTAVYYCAREPMDYWGQGTMVTVSS VL: DVVMTQSPLSLPVTLGQPASISCKSSQSLLDSDGKTYLSWLQQRPGQSPRRLIYLVSKLDSGVPDRFSGSGSGTDFTLKISRVEAEDVGVYYCWQGAHFPLTFGQGTKLEIK	3.85

Now, please, on to the next binder.
The recorded IC50 for 67G11 (antibody, V domains shown, mouse hybridoma antibody; also called hybridoma 67G11) VH: QVQLQQSGAELARPGASVKLSCKASGYTFTSYGIGWVKQRTGQGLEWIGEIYPRSGNTYNNEKFKGKATLTADKSSRTVYMELRSLISEDSAVYFCAREGYSNNYYAMDYWGQGTSVTVFS VL: DVLMTQTPLSLPVSLGDQASISCRSSQSLVHSNGNTYLEWYLQKPGQSPKLLIYKVSNRFSGVPDRLSGSGSGTDFTLKISRVEAEDLGVYYCFQGSHVPFTFGSGTKLEIK is 2.41
